Test: NCI Yeast Anticancer Drug Screen. Data for the sgs1 strain (AID 173);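 note: 0% = growth of vehicle-only control cultures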
Conditions: S. cerevisiae sgs1 mutant, at 1.2 µM, stronger effect = higher value
Compounds without any hit were thinned out: in the full panel of roughly 79,000, 15% have a hit. Activity calls are given as the source filed them. Cut-off read from the data, not from the text of the source: active = growth inhibition above about 70%; inactive = the rest.

| molecule | growth inhibition |
| --- | --- |
| O=[N+]([O-])c1cc[n+]([O-])c(Cl)c1 | 8% (inactive) |
| CC1=COC2=C(C)C(=O)C(=O)c3c(C)ccc1c32 | 23% (inactive) |
| NC(=S)N1N=C2c3ccccc3CC[C@@H]2[C@@H]1c1ccccc1 | 6% (inactive) |
| COc1ccc2nc3cccc([N+](=O)[O-])c3c(NCCNCCN(C)C)c2c1 | -1% (inactive) |
| O=C1C(/C=C/c2ccc(Cl)cc2)=NNC2N1N=C1NC(=O)C3(NN12)c1ccccc1-c1ccccc13 (stereo not given) | -1% (inactive) |

* * *

Test: NCI Yeast Anticancer Drug Screen. Data for the mec2-1 strain (AID 157)
Details: S. cerevisiae mec2-1 strain, at 50.0 µM (retest, dose inferred, filed as 5.0), stronger effect = higher value
This is part of a sample that, as a whole, favours compounds with a hit. Of some 79,000 tested, about 15% had one in any assay.
We begin with a simple list: items and their reported growth inhibition.

| molecule | growth inhibition (%) |
| --- | --- |
| O=C(O)c1c2ccc(Cl)cc2nc2[nH]c(=O)[nH]c(=O)c12 | 52 |
| CC/C(=C(\c1ccccc1)c1ccc(OCC[N+](C)(C)C)cc1)c1ccccc1 | 31 |
| COC(=O)C(=O)c1c(-c2ccc(Cl)c(Cl)c2)[nH]c2[nH]n(-c3ccccc3)c(=O)c2c1=O | 9 |
| COc1cc2c(cc1OC)[C@@H](Nc1ccc(C#N)cc1)C1COC(=O)[C@@H]1C2c1cc(OC)c(O)c(OC)c1 (stereo not given in full) | 98 |
| N#C/C(=C\NC(=S)Nc1ccc(S(N)(=O)=O)cc1)C(=O)c1ccc2ccccc2c1 | 95 |

* * *

Assay: NCI Yeast Anticancer Drug Screen. Data for the bub3 strain (AID 167)
Conditions: S. cerevisiae bub3 mutant strain, at 1.2 µM, stronger effect = higher value
The panel holds about 79,000 compounds, 15% with a hit somewhere; the sample as a whole holds those more often.
Listed here: items and their measured growth inhibition.

| compound | unit-abbrev | growth inhibition |
| --- | --- | --- |
| O=C(C(Cl)=C(N1CCCCC1)N1CCCCC1)C(Cl)Cl | % | -5 |
| CC1=NN(C(=O)c2ccccc2O)C(=O)/C1=C/c1ccco1 | % | 40 |
| O=NC1c2cccc3cccc(c23)C1N=O (stereo unspecified) | % | -10 |
| O=S(=O)(NNc1ccccc1)c1ccccc1 | % | -4 |
| CCCCCCCCCCCCCCCCCCN(C)C(COC)COP(=O)([O-])OCC[N+](C)(C)C (stereo unspecified) | % | -23 |
| CCN1CCC(O)(c2ccc(Oc3ccc(Cl)cc3)cc2)C(C(=O)c2ccc(Oc3ccc(Cl)cc3)cc2)C1 (stereo unspecified) | % | 22 |
| CN1CCN(C(=O)c2cccc3cccc(C(=O)O)c23)CC1 | % | 12 |
| CCS(=O)(=O)Nc1ccc(Nc2c3ccccc3nc3ccccc23)c(OC)c1 | % | -50 |
| CC/C(=C(\c1ccccc1)c1ccc(OCC[N+](C)(C)C)cc1)c1ccccc1 | % | -3 |
| O=Cc1ccccc1C=O | % | 6 |
| O=C1C(=O)N(c2ccccc2)[C@@]2(c3ccccc3)C(=Nc3ccccc3)OC(c3ccccc3)=C12 | % | -1 |
| NC(=S)N1N=C2c3ccccc3CC[C@@H]2[C@@H]1c1ccccc1 | % | -4 |
| CC(C)OC(=O)NNc1cccc(Cl)c1 | % | 3 |
| CCCNCC(=O)O[C@]1(CC)C(=O)OCc2c1cc1n(c2=O)Cc2cc3ccccc3nc2-1 | % | 17 |
| COc1ccc2cc3c4cc5c(cc4cc[n+]3cc2c1OC)OCO5 | % | 6 |
| OB(O)c1ccccc1C#Cc1ccccc1 | % | 8 |
| CCCC/C=C1\CCC(CN2CCCC2)C1=O (stereo unspecified) | % | 1 |
| CC1=CN2C(c3ccccc3)=NON(c3ccc(C)cn3)C2C=C1 (stereo unspecified) | % | -2 |
| CC(C)(C)c1ccc2c(c1)C(=O)c1ccccc1C2=O | % | 4 |
| NC(=S)N1N=C2c3ccccc3CC[C@H]2[C@@H]1c1ccc(Cl)cc1 | % | -12 |
| OC(CC(O)(C(F)(F)F)C(F)(F)F)c1ccc(C(O)CC(O)(C(F)(F)F)C(F)(F)F)cc1 (stereo unspecified) | % | -2 |
| CC1(C)OC(=O)C(=Cc2ccc([N+](=O)[O-])s2)C(=O)O1 | % | -18 |
| Cc1ccnc2c(O)cccc12 | % | -6 |
| CCN(CC)CCNc1ccc(C)c2sc3ccc(O)cc3c(=O)c12 | % | -1 |
| O=C1CC(C(O)(C(F)(F)F)C(F)(F)Cl)CCC1C(O)(C(F)(F)F)C(F)(F)Cl (stereo unspecified) | % | 60 |
| O=C(NO)c1coc2ccccc2c1=O | % | -6 |
| CCOc1ccc(N)c(S)c1 | % | 0 |
| CC1=CC(=O)C=CC1=Nc1cc(Cl)c(O)c(Cl)c1 | % | 7 |
| O=C(NNc1ccccc1)C(CCCCNS(=O)(=O)Cc1ccccc1)NS(=O)(=O)Cc1ccccc1 (stereo unspecified) | % | 1 |
| CCN1CCC(O)(c2ccc(Oc3ccc(C)cc3)cc2)C(C(=O)c2ccc(Oc3ccc(C)cc3)cc2)C1 (stereo unspecified) | % | 0 |
| CC1=CC(C)(C)SC(SSSC2=NC(C)=CC(C)(C)S2)=N1 | % | -2 |
